The origin of these recorded values is paper PMC7994712.

System tested: Somatostatin receptor 3 (SSTR3) (human), P32745
Sequence (P32745 whole entry): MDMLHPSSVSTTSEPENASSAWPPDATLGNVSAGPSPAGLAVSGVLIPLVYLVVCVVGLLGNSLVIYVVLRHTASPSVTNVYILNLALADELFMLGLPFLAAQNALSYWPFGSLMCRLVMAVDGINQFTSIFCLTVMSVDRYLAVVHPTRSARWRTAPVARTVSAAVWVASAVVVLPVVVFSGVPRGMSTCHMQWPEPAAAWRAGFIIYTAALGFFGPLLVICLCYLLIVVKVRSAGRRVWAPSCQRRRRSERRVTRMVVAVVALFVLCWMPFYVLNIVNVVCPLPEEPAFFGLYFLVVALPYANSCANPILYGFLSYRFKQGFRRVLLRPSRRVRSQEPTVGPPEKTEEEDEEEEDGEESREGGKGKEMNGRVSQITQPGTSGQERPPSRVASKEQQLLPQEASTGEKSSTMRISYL
Test summary: competition with 125I-Tyr11 SST14
Condition parameters: octanoyl moiety at the N-terminus (N-octanoyl amide); L-mesityl alanine (Msa) at position 5; D-Trp at position 7; disulfide bridge between the two cysteines
Observable: pIC50
Convention used: pIC50 is expressed as -log10 of the molar concentration.

Param item = PCKNFFWKTFTSCK [Cortistatin analogue 5] ; retrieve measured pIC50.
8.29
